Test system: Vero E6 infected with SARS-CoV-2
Assay: inhibition of SARS-CoV-2 cytopathic effect; higher = more antiviral protection, active = above 15
Settings: 8.33 nM; 48 h
Entries and their inhibition of SARS-CoV-2 cytopathic effect values follow.

- MOLECULE: "CC(=O)NCC(=O)N1[C@@H]2CC[C@H]1c1ccc(Nc3ncc(C(F)(F)F)c(NC4CCC4)n3)cc12"
  READOUT VALUE: "-1.15% (inactive)"
- MOLECULE: "NC[C@H]1O[C@H](O[C@H]2[C@H](O)[C@@H](O[C@H]3O[C@H](CO)[C@@H](O)[C@H](N)[C@H]3O)[C@H](N)C[C@@H]2N)[C@H](O)[C@@H](O)[C@@H]1O"
  READOUT VALUE: "2.23% (inactive)"
- MOLECULE: "CC(=O)O[C@H]1CC[C@@]2(C)C(=CC[C@@H]3[C@@H]2CC[C@]2(C)C(c4cccnc4)=CC[C@@H]32)C1 [abiraterone-acetate]"
  READOUT VALUE: "0.99% (inactive)"
- MOLECULE: "CO[C@@H]1[C@@H](OC(N)=O)[C@@H](O)[C@H](Oc2ccc3c(O)c(NC(=O)c4ccc(O)c(CC=C(C)C)c4)c(=O)oc3c2C)OC1(C)C"
  READOUT VALUE: "-2.69% (inactive)"
- MOLECULE: "C[C@@H](Oc1cc(-n2cnc3ccc(CN4CCN(C)CC4)cc32)sc1C(N)=O)c1ccccc1C(F)(F)F"
  READOUT VALUE: "0.72% (inactive)"

Query: Request: inhibition of SARS-CoV-2 cytopathic effect, test system Vero E6 infected with SARS-CoV-2, entry O=C(O)CCCCCCNC1c2ccccc2CCc2ccccc21
Reply: -0.3% (inactive)

Query: Give inhibition of SARS-CoV-2 cytopathic effect (Vero E6 infected with SARS-CoV-2) of the following molecule: Cn1cc(C(F)(F)F)nc1-c1ccc(OCC(O)CNCCOc2ccc(O)c(C(N)=O)c2)cc1 (configuration not stated)
Reply: -0.6% (inactive)

Query: # value lookup — system Vero E6 infected with SARS-CoV-2, readout inhibition of SARS-CoV-2 cytopathic effect, item CC1(C)CC(O)CC(C)(C)N1[O]
Reply: 1.45% (inactive)

Query: Lookup: inhibition of SARS-CoV-2 cytopathic effect / Vero E6 infected with SARS-CoV-2 / Cc1cc(CN2CCN(c3c(Br)cnc4nc(-c5ccc(N6CCN(C)CC6)cc5)[nH]c34)CC2)no1
Reply: -1.4% (inactive)

Query: What reported inhibition of SARS-CoV-2 cytopathic effect corresponds to Cc1sc2c(c1C)C(c1ccc(Cl)cc1)=N[C@@H](CC(=O)Nc1ccc(OCCOCCOCCOCCNc3cccc4c3C(=O)N(C3CCC(=O)NC3=O)C4=O)cc1)c1nnc(C)n1-2 (some centres not stated) on Vero E6 infected with SARS-CoV-2?
Reply: -1.32% (inactive)

Query: Lab note: need inhibition of SARS-CoV-2 cytopathic effect for Oc1c(Cl)cc(Cl)c(Cl)c1Cc1c(O)c(Cl)cc(Cl)c1Cl on Vero E6 infected with SARS-CoV-2, anyone have it?
Reply: 1.77% (inactive)

Query: Identify the measured inhibition of SARS-CoV-2 cytopathic effect of C[C@@H]1[C@H](O)[C@@H](C)/C=C/C=C/C=C/C=C/C=C/C=C/C=C/[C@H](O[C@@H]2O[C@H](C)[C@@H](O)[C@H](N)[C@@H]2O)C[C@@H]2O[C@](O)(C[C@@H](O)C[C@@H](O)[C@H](O)CC[C@@H](O)C[C@@H](O)CC(=O)O[C@H]1C)C[C@H](O)[C@H]2C(=O)O for Vero E6 infected with SARS-CoV-2.
Reply: 0.44% (inactive)

Query: Tell me reported inhibition of SARS-CoV-2 cytopathic effect for CSc1ccc(OCc2ncc([N+](=O)[O-])n2C)cc1 , tested with Vero E6 infected with SARS-CoV-2.
Reply: -1.7% (inactive)

Query: API: value(readout= inhibition of SARS-CoV-2 cytopathic effect, system= Vero E6 infected with SARS-CoV-2, query= C[C@H](c1ccc(F)cc1CCCC(=O)O)N(c1cc(F)ccc1F)S(=O)(=O)c1ccc(Cl)cc1 )
Reply: -1.39% (inactive)

Query: Lab note: need inhibition of SARS-CoV-2 cytopathic effect for O=C(COc1ccc(C(=O)c2ccccc2)cc1)NC1CCN(Cc2ccccc2)CC1 on Vero E6 infected with SARS-CoV-2, anyone have it?
Reply: -0.76% (inactive)

Query: Missing value: inhibition of SARS-CoV-2 cytopathic effect, Vero E6 infected with SARS-CoV-2, entry Cl/C=C\C[N+]12CN3CN(CN(C3)C1)C2 [1-((Z)-3-chloroallyl)-1,3,5,7-tetraazaadamantan-1-ium] . Fill in?
Reply: 0.47% (inactive)

Query: I'm curious: which inhibition of SARS-CoV-2 cytopathic effect was measured for O=C(N/N=C/c1ccc(O)c(O)c1)c1cc2ccccc2cc1O tested on Vero E6 infected with SARS-CoV-2?
Reply: 1.05% (inactive)

Query: Request: inhibition of SARS-CoV-2 cytopathic effect, test system Vero E6 infected with SARS-CoV-2, entry CC(C)NCCN(C(C)C)S(=O)(=O)c1ccc(Cl)cc1Cl
Reply: -1.25% (inactive)

Query: Given the entry O=C(c1ccc(CN2CCOCC2)cc1)N1CCN(C2CC2)CC1 , what inhibition of SARS-CoV-2 cytopathic effect was observed with Vero E6 infected with SARS-CoV-2?
Reply: 1.98% (inactive)

---

Tested on: Vero E6 infected with SARS-CoV-2
Experiment: inhibition of SARS-CoV-2 cytopathic effect; higher = more antiviral protection, active = above 15
Details: 10000 nM; 48 h
READOUT NAME: inhibition of SARS-CoV-2 cytopathic effect (%)
Response body: numeric value in %, unit text excluded.

- COMPOUND: "CC1(C)NC(=O)N(c2ccc([N+](=O)[O-])c(C(F)(F)F)c2)C1=O [nilutamide]"
  TESTED SYSTEM: "Vero E6 infected with SARS-CoV-2"
  READOUT VALUE: 1.01
- COMPOUND: "Cn1cnc2c(F)c(Nc3ccc(Br)cc3F)c(C(=O)NOCCO)cc21 [binimetinib]"
  TESTED SYSTEM: "Vero E6 infected with SARS-CoV-2"
  READOUT VALUE: -12
- COMPOUND: "CSC[C@H](N)C(=O)O [S-methylcysteine]"
  TESTED SYSTEM: "Vero E6 infected with SARS-CoV-2"
  READOUT VALUE: 0.31
- COMPOUND: "O=[N+]([O-])c1cn2c(n1)OC[C@@H](OCc1ccc(-c3ccc(OC(F)(F)F)cc3)nc1)C2"
  TESTED SYSTEM: "Vero E6 infected with SARS-CoV-2"
  READOUT VALUE: 0.34
- COMPOUND: "CC(C)NC[C@@H](O)c1ccc(O)c(O)c1 (racemic) [isoprenaline]"
  TESTED SYSTEM: "Vero E6 infected with SARS-CoV-2"
  READOUT VALUE: -2.47

Query: Quick check: inhibition of SARS-CoV-2 cytopathic effect of CN=c1nc(-c2ccccc2)n(-c2ccccc2)s1 ?
Reply: -1.43

Query: Any idea what inhibition of SARS-CoV-2 cytopathic effect was measured for CN1CCCC(CN2c3ccccc3Sc3ccccc32)C1 (stereo not given) [mepazine] ?
Reply: 5.75

Query: Need inhibition of SARS-CoV-2 cytopathic effect of CNc1nc(-c2ccc3c(N)n[nH]c3c2)cc(N2C[C@@H](C(=O)NC3CCCCC3)CC[C@H]2C)n1 , thanks.
Reply: -5.35

Query: Param item = CC(C)c1nc(CN(C)C(=O)N[C@H](C(=O)N[C@@H](Cc2ccccc2)C[C@H](O)[C@H](Cc2ccccc2)NC(=O)OCc2cncs2)C(C)C)cs1 [ritonavir] ; retrieve measured inhibition of SARS-CoV-2 cytopathic effect.
Reply: 0.85

Query: Item Cc1cc(SCc2sc(-c3ccc(C(F)(F)F)cc3)nc2C)ccc1OCC(=O)O has what recorded inhibition of SARS-CoV-2 cytopathic effect?
Reply: -2.99

---

Tested on: Vero E6 infected with SARS-CoV-2
Assay: inhibition of SARS-CoV-2 cytopathic effect; higher = more antiviral protection, active = above 15
Conditions: 10000 nM; 48 h
Recorded inhibition of SARS-CoV-2 cytopathic effect for the following compounds
Just the number please, in %, no unit attached.

Check out these entries, answers already filled in.
- SAMPLE SMILES: "CCN(CC)CCNc1ccc(CO)c2sc3ccccc3c(=O)c12"
  UNITS OF MEASURE: "%"
  READOUT VALUE: 0.99
- SAMPLE SMILES: "O=C(O)Cc1ccc2c(c1)C(=O)c1ccccc1CO2"
  UNITS OF MEASURE: "%"
  READOUT VALUE: 0.02

Query: # query: inhibition of SARS-CoV-2 cytopathic effect of entry O=C(/C=C/c1ccc(CN(CCO)CCc2c[nH]c3ccccc23)cc1)NO
Reply: -23.2

Query: Consider the compound shown here: O=C(O)CNC(=O)c1c(O)c2ccccc2n(Cc2ccccc2)c1=O What is its recorded inhibition of SARS-CoV-2 cytopathic effect?
Reply: -1.13

Query: Report inhibition of SARS-CoV-2 cytopathic effect for Cc1nc(=O)c2cc(CN(C)c3ccc(C(=O)N[C@@H](CCC(=O)O)C(=O)O)s3)ccc2[nH]1 please.
Reply: -1.82

Query: Given CN1c2c([nH]c(N)nc2=O)NC[C@@H]1CNc1ccc(C(=O)N[C@@H](CCC(=O)O)C(=O)O)cc1 , state its recorded inhibition of SARS-CoV-2 cytopathic effect.
Reply: 2.93

Query: Sample CO[C@H]1/C=C\C=C(/C)C(=O)NC2=CC(=O)C(NCCN(C)C)=C(C[C@@H](C)C[C@H](OC)[C@H](O)[C@@H](C)/C=C(\C)[C@@H]1OC(N)=O)C2=O — what was its inhibition of SARS-CoV-2 cytopathic effect?
Reply: 12.4

Query: Please give the measured inhibition of SARS-CoV-2 cytopathic effect for this compound: COc1ccc2nc3ccc(Cl)cc3c(SCCCN)c2c1
Reply: 2.63
